meta.source: ChEMBL document CHEMBL3997828

Assay system Orexin receptor type 2 (Homo sapiens); read-out recorded as pKi.
Give bare numbers, as −log10 of the molar value.

Some solved cases for reference:
QUERY_SMILES	RECORDED_VALUE
CC(=O)Nc1ccc(-c2ccccc2)c(C(=O)N2C[C@H](Oc3nccc(C#N)c3C)CC[C@H]2C)n1	9.22
COC(=O)c1c(C#N)ccnc1O[C@@H]1CC[C@@H](C)N(C(=O)c2ccccc2-n2nccn2)C1	9.30
C[C@@H]1CC[C@@H](Nc2cc(C#N)ccn2)CN1C(=O)c1ccccc1-n1nccn1	9.05
COC(=O)c1cccnc1S[C@@H]1CC[C@@H](C)N(C(=O)c2ccccc2-n2nccn2)C1	9.10

Let me know recorded pKi for C[C@@H]1CC[C@@H](Sc2cc(C#N)ccn2)CN1C(=O)c1ccccc1-n1nccn1 , thanks.
8.77

====

target: Orexin/Hypocretin receptor type 1 (Homo sapiens, UniProt O43613); assay: Antagonist activity at human OX1R expressed in CHOK1 cells assessed as reduction in orexin A-induced calcium flux preincubated followed by orexin A addition by FLIPR assays
pIC50: −log10 of the molar value.
Classification field: enter 1 (yes) for pIC50 values not below 6, 0 (no) for values below it.

QUERY_SMILES	CLASS_LABEL
Cc1c(C#N)ccnc1O[C@@H]1CC[C@@H](C)N(C(=O)c2ccc(Br)nc2-n2nccn2)C1	0 (no)
CC(=O)Nc1ccc(-c2ccccc2)c(C(=O)N2C[C@H](Oc3nccc(C#N)c3C)CC[C@H]2C)n1	1 (yes)
COC(=O)c1cccnc1O[C@@H]1CC[C@@H](C)N(C(=O)c2ccccc2-n2nccn2)C1	1 (yes)
Cc1c(C#N)ccnc1O[C@@H]1CC[C@@H](C)N(C(=O)c2ccccc2N2CCCC2)C1	0 (no)
COc1ccc(C(=O)N2C[C@H](Oc3nccc(C#N)c3C)CC[C@H]2C)c(-n2nccn2)n1	0 (no)
CC(=O)Nc1cc(C(=O)N2C[C@H](Oc3nccc(C#N)c3C)CC[C@H]2C)c(-c2ccccc2)cn1	1 (yes)

Given the entry COC(=O)c1cccnc1N[C@@H]1CC[C@@H](C)N(C(=O)c2ccccc2-n2nccn2)C1 , answer whether its pIC50 meets or surpasses 6.
1 (yes)

Given the entry Cc1c(C#N)ccnc1O[C@@H]1CC[C@@H](C)N(C(=O)c2ccccc2-n2ncnn2)C1 , answer whether its pIC50 meets or surpasses 6.
0 (no)

Given the entry C[C@@H]1CC[C@@H](Nc2cc(C#N)ccn2)CN1C(=O)c1ccccc1-n1nccn1 , answer whether its pIC50 meets or surpasses 6.
0 (no)

Given the entry Cc1c(C#N)ccnc1O[C@@H]1CC[C@@H](C)N(C(=O)c2ccccc2C(F)(F)F)C1 , answer whether its pIC50 meets or surpasses 6.
0 (no)

====

Molecular target: Orexin/Hypocretin receptor type 1 (Homo sapiens)
Sequence (O43613 whole entry): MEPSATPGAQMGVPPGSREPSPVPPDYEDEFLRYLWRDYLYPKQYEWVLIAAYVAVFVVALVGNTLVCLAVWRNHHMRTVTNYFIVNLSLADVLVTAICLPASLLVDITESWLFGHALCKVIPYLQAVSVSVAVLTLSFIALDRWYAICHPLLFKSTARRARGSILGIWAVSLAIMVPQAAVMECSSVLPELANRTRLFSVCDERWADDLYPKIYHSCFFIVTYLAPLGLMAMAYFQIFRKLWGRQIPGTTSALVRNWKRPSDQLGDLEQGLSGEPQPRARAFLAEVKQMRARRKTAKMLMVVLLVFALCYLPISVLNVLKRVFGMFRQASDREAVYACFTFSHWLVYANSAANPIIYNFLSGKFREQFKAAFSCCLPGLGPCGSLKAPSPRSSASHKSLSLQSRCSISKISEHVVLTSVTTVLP
pKi: −log10 of the molar value.
Classification field: enter YES for pKi values not below 7, NO for values below it.

QUERY_SMILES	TESTED_ON	CLASS_LABEL
CC(=O)Nc1cc(C(=O)N2C[C@H](Oc3nccc(C#N)c3C)CC[C@H]2C)c(-c2ccccc2)cn1	Orexin/Hypocretin receptor type 1 (Homo sapiens)	YES
C[C@@H]1CC[C@@H](Oc2cc(C#N)ccn2)CN1C(=O)c1ccccc1-c1ncccn1	Orexin/Hypocretin receptor type 1 (Homo sapiens)	NO
COC(=O)c1cccnc1S[C@@H]1CC[C@@H](C)N(C(=O)c2ccccc2-n2nccn2)C1	Orexin/Hypocretin receptor type 1 (Homo sapiens)	YES
C[C@@H]1CC[C@@H](Nc2cc(C#N)ccn2)CN1C(=O)c1ccccc1-n1nccn1	Orexin/Hypocretin receptor type 1 (Homo sapiens)	NO
C[C@@H]1CC[C@@H](Oc2nccc3c2C(=O)OC3(C)C)CN1C(=O)c1ccccc1-n1nccn1	Orexin/Hypocretin receptor type 1 (Homo sapiens)	NO

Given the entry C[C@@H]1CC[C@@H](Sc2cc(C#N)ccn2)CN1C(=O)c1ccccc1-n1nccn1 , answer whether its pKi meets or surpasses 7.
NO
